molecular target: Shiga toxin 2 (Escherichia coli O157:H7) (UniProt P09385+P09386); assay: E. coli 0.157:H7 Shiga Toxin SOP - stx2 screening assay; assay type: functional; parameters: scale not given: direction of the effect not stated beside the values; conditions: 30 µM
quantityMeasured: Percent Effect (%)
State just the number; it will be interpreted in %.

# count of solved cases: 3
> print(dat)
                                   compound  quantitymeasured  recordedmeasurement
1          CCc1nc(CN2CCCN(C(=O)CCSC)CC2)cs1    Percent Effect                -65.7
2  Cc1nc(C2(NCC(=O)NC(=O)NCc3cccs3)CCCCC2)no1    Percent Effect                 5.13
3  Cn1c(CN2CCOC(c3nc(C(C)(C)C)n[nH]3)C2)nnc1C1CC1 (stereo unspecified)    Percent Effect                -21.1

Shiga toxin 2 (Escherichia coli O157:H7) (UniProt P09385+P09386) / Percent Effect / O=C1CN(Cc2nnc(-c3ccccc3Br)o2)CCN1 : value?
-24.1

Repeat for the following compound: Cc1nc(C)n(CC2CCCCN2Cc2ncc(C(C)(C)C)o2)n1 (stereo unspecified)
-41

Repeat for the following compound: CCn1ncc2c1C(COC)CN(Cc1ccc(OC)cc1)C2 (stereo unspecified)
-3.46
